- Tested on: Zika virus NS2B-NS3 protease (unlinked complex)
- procedure_text: Primary screen GU Rhodamine qHTS for Zika virus inhibitors: Unlinked NS2B-NS3 protease assay (AID 1347159); also: nearly all actives have a fitted effect of over 60% in size
- settings: Recombinant ZIKV NS2B-NS3 protease, Rhodamine110 substrate fluorescence; series mostly up to 107 µM
Results filed as inconclusive are left out. Activity calls are given as the source filed them. Calls follow the shape of the dose curve; as a rule, active = well fitted inhibition curve with a large enough effect; inconclusive = small, poorly fitted or top-dose-only effect; inactive = no such curve, though single readings can be large or run the other way.
quantity_kind: outcome

compound	quantity_kind	recorded_result
C[C@@H]1O[C@@H](O[C@H]2[C@@H](OC(=O)[C@]34CCC(C)(C)CC3C3=CCC5[C@@]6(C)C[C@H](O)[C@H](O[C@@H]7O[C@H](C(=O)O)[C@@H](O)[C@H](O)[C@H]7O)[C@@](C)(C(=O)O)C6CC[C@@]5(C)[C@]3(C)CC4)OC[C@H](O)[C@@H]2O)[C@H](O)[C@H](O)[C@H]1O[C@@H]1OC[C@@H](O)[C@H](O)[C@H]1O (stereo partly drawn)	outcome	inactive
C=C1C(=O)O[C@@H]2C/C(C)=C\C(=O)/C=C(\C)[C@@H](OC(=O)/C(C)=C\C)[C@H](O)[C@@H]12	outcome	inactive
OC[C@H]1O[C@@H](OCCc2ccccc2)[C@H](O[C@@H]2OC[C@](O)(CO)[C@H]2O)[C@@H](O)[C@@H]1O	outcome	inactive

Source listed as PubChem BioAssay (NCATS).
